- Test system: velvetleaf
- assay notes: Postemergent control of plant species
- Type: in vivo, Abutilon theophrasti
- condition label: Abutilon theophrasti, post-emergence, 336 h, read-out: percent postemergent control
Items are presented alongside their recorded pest or weed control at 500 ppm.
experimental endpoint: pest or weed control at 500 ppm (%)

smiles_data=CCc1cccc(CC)c1NS(=O)(=O)c1nc2nc(C)cc(C)n2n1 test_result=80
smiles_data=COC(=O)c1nn(C)c(C)c1NS(=O)(=O)c1nc2nc(C)cc(C)n2n1 test_result=70
smiles_data=Cc1cc(C)n2nc(S(=O)(=O)Nc3c(Cl)cccc3CO)nc2n1 test_result=20
smiles_data=Cc1ccnc2nc(S(=O)(=O)Nc3c(Cl)cccc3Cl)nn12 test_result=100
smiles_data=O=S(=O)(Nc1ccccc1C(F)(F)F)c1nc2ncc(Cl)cn2n1 test_result=80
smiles_data=Cc1nc2nc(S(=O)(=O)Nc3ccccc3C(F)(F)F)nn2c2c1CCC2 test_result=0
smiles_data=COC(=O)c1ccccc1NS(=O)(=O)c1nc2nc(C)cc(C)n2n1 test_result=0
smiles_data=Cc1cc(C)n2nc(S(=O)(=O)Nc3ccccc3S(C)(=O)=O)nc2n1 test_result=50
smiles_data=CC(=O)N(c1c(Cl)cccc1Cl)S(=O)(=O)c1nc2nc(C)cc(C)n2n1 test_result=100
